For each entry below, report its logP value.
- method.summary: physchem
- condition.label: octanol/water
Answers are plain numbers.

compound: Nc1ccc(S(=O)(=O)NC(=O)c2ccccc2)cc1 [SULFABENZAMIDE]
logP: 1.46
--
compound: COC(=O)c1cccnc1 [METHYL NICOTINATE]
logP: 0.87
--
compound: C[C@]12CCC(=O)C=C1CC[C@@H]1[C@@H]2CC[C@@]2(C)[C@H]1CC[C@@]21CCC(=O)O1
logP: 2.26
--
compound: CCc1ccc(O)cc1
logP: 2.47

Below are some compounds; for each one, tell me its logP.
1. C/C=C(/C(=C/C)c1ccc(O)cc1)c1ccc(O)cc1
2. C[C@H]1C[C@H]2[C@@H]3CCC4=CC(=O)C=C[C@]4(C)[C@@]3(F)[C@@H](O)C[C@]2(C)[C@@]1(O)C(=O)CO
3. Nc1ccc(S(=O)(=O)Nc2ncccn2)cc1
4. NC(=O)NS(=O)(=O)c1ccc(N)cc1 [SULFACARBAMIDE]
5. CC(C(=O)O)c1ccc(-c2ccccc2)c(F)c1 (stereo unspecified)
6. O=C(O)CCCCc1ccccc1
7. Cc1ccccc1O

Reply:
[4.5, 2.01, -0.12, -1.1, 3.99, 2.85, 1.94]

* * *

- Tested on: Zone of skin
- condition.label: human
Give log Kp for every item shown.
One number for each entry.

Dear colleague, could you please provide log Kp for the compounds listed below?
1. CN1CCC[C@H]1c1cccnc1
2. O=C(OCc1ccccc1)c1cccnc1 [BENZYL NICOTINATE]
3. Nc1cc([N+](=O)[O-])ccc1O

Reply:
1: -5.26; 2: -5.35; 3: -6.62

Provide each entry's log Kp from the list below.
1. CCNc1nc(Cl)nc(NC(C)C)n1
2. Oc1ccccc1
3. COc1ccc2c(c1)c(CC(=O)O)c(C)n2C(=O)c1ccc(Cl)cc1
4. CCC1(c2ccccc2)C(=O)NC(=O)NC1=O
5. CCc1ccc(O)cc1
6. CN1C(C(=O)Nc2ccccn2)=C(O)c2ccccc2S1(=O)=O
7. Cc1ccc(C(C)C)c(O)c1

Reply:
1: -5.56; 2: -5.64; 3: -5.39; 4: -6.9; 5: -5.01; 6: -6.02; 7: -4.83

Batch lookup, log Kp per entry.
1. CC(C(=O)O)c1cccc(C(=O)c2ccccc2)c1 (stereo not drawn)
2. CN[C@@H](C)[C@H](O)c1ccccc1
3. O=C(O)c1ccccc1
4. Cn1c(=O)c2c(ncn2C)n(C)c1=O
5. Oc1ccc2ccccc2c1
6. Cc1cc(=O)n(-c2ccccc2)n1C [ANTIPYRINE]
7. Oc1ccc(Cl)cc1
8. Cc1ccccc1O

Reply:
1. -4.7
2. -5.75
3. -5.08
4. -7.56
5. -5.11
6. -7.74
7. -5
8. -5.36
